assay_protocol: Time course of conversion to indirubin in FaSSIF at 37° C.
Assay type: physicochemical
conditions: FaSSIF 37° C., 30 min
parameter: starting material (prodrug compound) (%)
Provide the reading as a plain figure in %.

Look over these answered cases.
compound: CN(C)CCN(C)CN1C(=O)/C(=C2\Nc3ccccc3C2=O)c2ccccc21 [drawing 253]
unit_info: %
starting material (prodrug compound): 0
//
compound: O=C1/C(=C2/C(=O)N(CN3CCCC3)c3ccccc32)Nc2ccccc21 [drawing 255]
unit_info: %
starting material (prodrug compound): 0
//
compound: O=C1/C(=C2/C(=O)N(CN3CCC3)c3ccccc32)Nc2ccccc21 [drawing 266]
unit_info: %
starting material (prodrug compound): 79
//
compound: O=C1/C(=C2/C(=O)N(CN3CCC(F)(F)CC3)c3ccccc32)Nc2ccccc21 [drawing 260]
unit_info: %
starting material (prodrug compound): 39
//
compound: O=C1/C(=C2/C(=O)N(CO)c3ccccc32)Nc2ccccc21 [drawing 259]
unit_info: %
starting material (prodrug compound): 82

Give its starting material (prodrug compound) value. Item: CN(C)C1CCN(CN2C(=O)/C(=C3\Nc4ccccc4C3=O)c3ccccc32)CC1 [drawing 256]
31

Next: CNCCNC(=O)N1C(=O)/C(=C2\Nc3ccccc3C2=O)c2ccccc21.Cl [drawing 264]
100

Next: O=C1/C(=C2/C(=O)N(COS(=O)(=O)O)c3ccccc32)Nc2ccccc21 [drawing 262]
0

* * *

Conversion to indirubin overview
assay_protocol: Time course of conversion to indirubin in FaSSGF at 37° C.
Assay type: physicochemical
conditions: FaSSGF (Example 4; table title prints FaSSIF) 37° C., over a 24 hour period

compound: O=C1/C(=C2/C(=O)N(C(=O)NC3CCOCC3)c3ccccc32)Nc2ccccc21 [drawing 278]
Conversion to indirubin: 0-20%
//
compound: O=C1/C(=C2/C(=O)N(CN3CCCC3)c3ccccc32)Nc2ccccc21 [drawing 270]
Conversion to indirubin: 80-100%
//
compound: CN(C)CCN(C)CN1C(=O)/C(=C2\Nc3ccccc3C2=O)c2ccccc21 [drawing 268]
Conversion to indirubin: 80-100%

Give its Conversion to indirubin value. Item: O=C1/C(=C2/C(=O)N(CN3CCCCC3)c3ccccc32)Nc2ccccc21 [drawing 269]
80-100%

Next: CC(=O)N1CCN(CN2C(=O)/C(=C3\Nc4ccccc4C3=O)c3ccccc32)CC1 [drawing 281]
0-20%

Next: O=C1/C(=C2/C(=O)N(CN3CCOCC3)c3ccccc32)Nc2ccccc21 [drawing 276]
20-40%

Next: O=C1/C(=C2/C(=O)N(CN3CCC(F)(F)CC3)c3ccccc32)Nc2ccccc21 [drawing 280]
0-20%

Next: CN(C)C1CCN(CN2C(=O)/C(=C3\Nc4ccccc4C3=O)c3ccccc32)CC1 [drawing 272]
60-80%

* * *

assay_protocol: Time course of conversion to indirubin in FaSSGF at 37° C.
Format: physicochemical
conditions: FaSSGF (Example 4; table title prints FaSSIF) 37° C., 15 min
Answer not met if starting material (prodrug compound) is under 70%, and met if it is 70% or more.

Examples with answers:
compound: O=C1/C(=C2/C(=O)N(CO)c3ccccc32)Nc2ccccc21 [drawing 274]
class_label: not met

compound: CNCCNC(=O)N1C(=O)/C(=C2\Nc3ccccc3C2=O)c2ccccc21.Cl [drawing 279]
class_label: met

compound: O=C1/C(=C2/C(=O)N(CN3CCCCC3)c3ccccc32)Nc2ccccc21 [drawing 269]
class_label: not met

compound: O=C1/C(=C2/C(=O)N(COS(=O)(=O)O)c3ccccc32)Nc2ccccc21 [drawing 277]
class_label: met

compound: O=C1/C(=C2/C(=O)N(CN3CCOCC3)c3ccccc32)Nc2ccccc21 [drawing 276]
class_label: met

compound: CN(C)CCN(CCN(C)C)CN1C(=O)/C(=C2\Nc3ccccc3C2=O)c2ccccc21 [drawing 271]
class_label: not met

Hi, just wondering whether CN(C)CCN(C)CN1C(=O)/C(=C2\Nc3ccccc3C2=O)c2ccccc21 [drawing 268] shows starting material (prodrug compound) of 70% or higher.
not met

Next: CC(=O)N1CCN(CN2C(=O)/C(=C3\Nc4ccccc4C3=O)c3ccccc32)CC1 [drawing 281]
met

Next: CN1CCN(CN2C(=O)/C(=C3\Nc4ccccc4C3=O)c3ccccc32)CC1 [drawing 273]
met

Next: O=C1/C(=C2/C(=O)N(CN3CCCC3)c3ccccc32)Nc2ccccc21 [drawing 270]
not met

Next: CCN(CC)CN1C(=O)/C(=C2\Nc3ccccc3C2=O)c2ccccc21 [drawing 267]
not met

Next: CN(C)C1CCN(CN2C(=O)/C(=C3\Nc4ccccc4C3=O)c3ccccc32)CC1 [drawing 272]
not met

* * *

assay_protocol: Time course of conversion to indirubin in FaSSIF at 37° C.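 Also: test compound, about 1-3 mg in 5 mL FaSSIF, sampled and analysed by UPLC-MS with PDA UV (210-400 nm), QDa mass and evaporative light scattering detection.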
Format: physicochemical
conditions: FaSSIF 37° C., 1 h
starting material (prodrug compound) overview
Provide the reading as a plain figure in %.

molecule: O=C1/C(=C2/C(=O)N(CN3CCC(F)(F)CC3)c3ccccc32)Nc2ccccc21 [drawing 260]
starting material (prodrug compound) [%]: 37
//
molecule: CN1CCN(CN2C(=O)/C(=C3\Nc4ccccc4C3=O)c3ccccc32)CC1 [drawing 265]
starting material (prodrug compound) [%]: 77
//
molecule: O=C1/C(=C2/C(=O)N(CN3CCCC3)c3ccccc32)Nc2ccccc21 [drawing 255]
starting material (prodrug compound) [%]: 0
//
molecule: CCN(CC)CN1C(=O)/C(=C2\Nc3ccccc3C2=O)c2ccccc21 [drawing 252]
starting material (prodrug compound) [%]: 0
//
molecule: CC(=O)N1CCN(CN2C(=O)/C(=C3\Nc4ccccc4C3=O)c3ccccc32)CC1 [drawing 258]
starting material (prodrug compound) [%]: 30
//
molecule: O=C1/C(=C2/C(=O)N(CN3CCOCC3)c3ccccc32)Nc2ccccc21 [drawing 261]
starting material (prodrug compound) [%]: 64

Give its starting material (prodrug compound) value. Item: CN(C)CCN(CCN(C)C)CN1C(=O)/C(=C2\Nc3ccccc3C2=O)c2ccccc21 [drawing 257]
6

Next: O=C1/C(=C2/C(=O)N(COS(=O)(=O)O)c3ccccc32)Nc2ccccc21 [drawing 262]
0

Next: CNCCNC(=O)N1C(=O)/C(=C2\Nc3ccccc3C2=O)c2ccccc21.Cl [drawing 264]
100

Next: CN(C)C1CCN(CN2C(=O)/C(=C3\Nc4ccccc4C3=O)c3ccccc32)CC1 [drawing 256]
32

Next: O=C1/C(=C2/C(=O)N(CO)c3ccccc32)Nc2ccccc21 [drawing 259]
80

Next: CN(C)CCN(C)CN1C(=O)/C(=C2\Nc3ccccc3C2=O)c2ccccc21 [drawing 253]
0

Next: O=C1/C(=C2/C(=O)N(C(=O)NC3CCOCC3)c3ccccc32)Nc2ccccc21 [drawing 263]
33

Next: O=C1/C(=C2/C(=O)N(CN3CCC3)c3ccccc32)Nc2ccccc21 [drawing 266]
80

* * *

Fraction (percent) of indirubin overview
assay_protocol: Stability of indirubin prodrugs in simulated fluids (FaSSIF, FaSSGF), 24 h at 37° C., UPLC-MS
Assay type: physicochemical
conditions: FaSSIF 37° C. 24 h
Experimental: 10.41 g fasted state simulated intestinal fluid (FaSSIF) buffer concentrate was dissolved in 240.3 g deionized water and 560 mg FaSSIF powder added. The mixture was stirred until complete dissolution observed. The test compound (approx. 1-3 mg) was placed in 5.00 mL of FaSSIF solution. Samples of the solution with the test compound were taken after 24 hours in at 37° C. (oven-controlled temperature). […]
Include the unit after the number when you answer.

compound: O=C1/C(=C2/C(=O)N(CS(=O)(=O)c3ccccc3)c3ccccc32)Nc2ccccc21
Fraction (percent) of indirubin: 0%

compound: O=C1/C(=C2/C(=O)N(C(=O)NC3CCOCC3)c3ccccc32)Nc2ccccc21 [drawing 236]
Fraction (percent) of indirubin: 10%

compound: O=C1/C(=C2/C(=O)N(C(=O)NCCNS(=O)(=O)C(F)(F)F)c3ccccc32)Nc2ccccc21
Fraction (percent) of indirubin: 0%

Moving on to the next compound.
Give its Fraction (percent) of indirubin value. Item: CN1CCC(NC(=O)N2C(=O)/C(=C3\Nc4ccccc4C3=O)c3ccccc32)CC1=O (stereo not drawn)
0%

* * *

assay_protocol: Time course of conversion to indirubin in FaSSGF at 37° C.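 Also: compound incubated in fasted state simulated gastric fluid, species in samples quantified by UPLC-MS with UV (210–400 nm) and ELS detection.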
Type: physicochemical
conditions: FaSSGF (Example 4; table title prints FaSSIF) 37° C., 30 min
parameter: starting material (prodrug compound) (%)
Provide the reading as a plain figure in %.

Look over these answered cases.
molecule: O=C1/C(=C2/C(=O)N(COS(=O)(=O)O)c3ccccc32)Nc2ccccc21 [drawing 277]
measured: 67

molecule: O=C1/C(=C2/C(=O)N(CN3CCOCC3)c3ccccc32)Nc2ccccc21 [drawing 276]
measured: 85

molecule: CNCCNC(=O)N1C(=O)/C(=C2\Nc3ccccc3C2=O)c2ccccc21.Cl [drawing 279]
measured: 100

molecule: CN(C)CCN(CCN(C)C)CN1C(=O)/C(=C2\Nc3ccccc3C2=O)c2ccccc21 [drawing 271]
measured: 2

Give its starting material (prodrug compound) value. Item: CN(C)C1CCN(CN2C(=O)/C(=C3\Nc4ccccc4C3=O)c3ccccc32)CC1 [drawing 272]
36

The reported measurements were obtained from patent US12516022B2.
